The reported measurements were obtained from the supplement of paper PMC8728848.

molecular target: Man(a1-3)[Man(a1-6)]Man(a1-6)[Man(a1-3)]Man(b1-4)GlcNAc(b1-4)GlcNAc; experiment: glycan array binding signal (z-score within array); higher = stronger binding; details: glycan notation: IUPAC condensed, linker removed
The entries come from a sample that favours the strongest signals as a whole.

- BINDER: "Cohesin-marm-DC-ASGPR-CRD (protein) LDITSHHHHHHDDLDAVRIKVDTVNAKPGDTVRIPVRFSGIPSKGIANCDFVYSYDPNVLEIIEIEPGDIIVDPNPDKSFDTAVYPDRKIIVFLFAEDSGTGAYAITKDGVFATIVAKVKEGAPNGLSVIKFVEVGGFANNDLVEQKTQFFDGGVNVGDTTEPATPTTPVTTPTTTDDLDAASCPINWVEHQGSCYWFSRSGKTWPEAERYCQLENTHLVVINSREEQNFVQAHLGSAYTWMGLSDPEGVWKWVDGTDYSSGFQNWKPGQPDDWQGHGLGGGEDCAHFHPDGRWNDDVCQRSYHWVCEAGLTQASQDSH"
  glycan array binding signal (z-score): -0.452
